- System: PANC-1
- protocol_details: cells
- Parameters: Viability of PDAC cell lines, ATPlite luminescence, 11-dose single-agent curve fit
- study_conditions: Homo sapiens, PANC-1, 72 h, read-out: EC50 [nM]
measured_property: log10 of EC50 (log10 of the value in nM)
Short version: log10 scale, EC50, nM.

In the examples that follow, each entry is paired with its recorded log10 of EC50.
>>> result("Cc1cccc(-c2[nH]c(CNc3ccccc3F)nc2-c2ccc3ncnn3c2)n1")
3.56
>>> result("CCOc1cc2ncc(C#N)c(Nc3ccc(OCc4ccccn4)c(Cl)c3)c2cc1NC(=O)/C=C/CN(C)C")
3.91
>>> result("Cc1cccc(-c2nn3c(c2-c2ccnc4ccc(C(N)=O)cc24)CCC3)n1")
1.78
>>> result("Cc1cc(C)c(/C=C2\\C(=O)Nc3ccccc32)[nH]1")
1.82
>>> result("CCCS(=O)(=O)Nc1ccc(F)c(C(=O)c2c[nH]c3ncc(-c4ccc(Cl)cc4)cc23)c1F")
0.82

Lab note: measured log10 of EC50 of COc1ccc(CN2[C@@H]3C[C@H]2CN(c2ccc(-c4cc(OCC(C)(C)O)cn5ncc(C#N)c45)cn2)C3)cn1 was 3.54

CC#CC(=O)N1CCC[C@H]1c1nc(-c2ccc(C(=O)Nc3ccccn3)cc2)c2c(N)nccn12 yielded log10 of EC50 of 2.56

Input Cn1cc(-c2cc3c(N4CCN(c5ncc([C@@](C)(N)c6ccc(F)cc6)cn5)CC4)ncnn3c2)cn1 . Output log10 of EC50: 3.41

Sample NC(=O)c1cccc2cn(-c3ccc([C@@H]4CCCNC4)cc3)nc12 ; log10 of EC50 observed: 3.55

====

- System: PANC-1
- protocol_details: cells
- Design: Viability of PDAC cell lines, ATPlite luminescence, 11-dose single-agent curve fit
- study_conditions: Homo sapiens, PANC-1, 72 h, read-out: EC50 [nM]
- Text: Afterward, small amounts were transferred to 384-well intermediate plates (Greiner Bio-One GmbH, Germany). […] Next, we analyzed the drug sensitivity of immortalized duct cell line HPDE to detect effects unrelated to pancreatic cancer.
EC50 for assorted compounds
Number only, in nM; omit the unit.

Example cases with answers are listed next.
>>> result("N#CC[C@H](C1CCCC1)n1cc(-c2ncnc3[nH]ccc23)cn1")
1370
>>> result("C#Cc1cccc(Nc2ncnc3cc(OCCOC)c(OCCOC)cc23)c1")
36.8
>>> result("Cc1ccc(Nc2nccc(N(C)c3ccc4c(C)n(C)nc4c3)n2)cc1S(N)(=O)=O")
913
>>> result("N#CC1(c2ccc(NC(=O)c3cccnc3NCc3ccncc3)cc2)CCCC1")
2350
>>> result("C[C@H](Nc1ncnc2nc[nH]c12)c1cc2cccc(Cl)c2c(=O)n1-c1ccccc1")
1590

Quick note, EC50 for COc1cc2nccc(Oc3ccc(NC(=O)NC4CC4)c(Cl)c3)c2cc1C(N)=O landed at 655

Data point: COc1cc2ncnc(Nc3cccc(Cl)c3F)c2cc1OC(=O)N1CCN(C)C[C@H]1C ; EC50 = 8860

Reported EC50 for C[C@H]1Oc2cc(cnc2N)-c2c(nn(C)c2C#N)CN(C)C(=O)c2ccc(F)cc21 was 8920

Field EC50 (entry CNC(=O)c1cc(Oc2ccc(NC(=O)Nc3ccc(Cl)c(C(F)(F)F)c3)cc2)ccn1 ) reads 7780
